# credit: ChEMBL document CHEMBL1137554

- Test system: SF-268
- EXPERIMENT_NOTES: Cytotoxicity against SF268 cells after 48 hrs by XTT assay
- Assay type: functional, cell-based
- RECORDED_CONDITIONS: Homo sapiens
Activity calls are given as the source filed them. The calls are words filed in the database; no cut-off is given here.

COMPOUND: CN(C)CCn1cc2c(c1)C(=O)c1cnccc1C2=O
TARGET_UNDER_TEST: SF-268
Activity: inactive
--
COMPOUND: CO/N=C1/c2ccncc2C(=O)c2cn(CCN(C)C)cc21
TARGET_UNDER_TEST: SF-268
Activity: inactive
--
COMPOUND: CN(C)CCO/N=C1/c2ccncc2C(=O)c2cn(CCN(C)C)cc21
TARGET_UNDER_TEST: SF-268
Activity: inactive
--
COMPOUND: CCOC(=O)CO/N=C1/c2ccncc2C(=O)c2cn(CCN(C)C)cc21
TARGET_UNDER_TEST: SF-268
Activity: inactive
--
COMPOUND: CN(C)CCn1cc2c(c1)/C(=N\O)c1ccncc1C2=O
TARGET_UNDER_TEST: SF-268
Activity: inactive
--
COMPOUND: CN(C)CCn1cc2c(c1)/C(=N\OCCO)c1ccncc1C2=O
TARGET_UNDER_TEST: SF-268
Activity: inactive
